Data provenance is ChEMBL document CHEMBL1144067.

Measured viability at 48 h, 500 molar ratio, listed per entry.
assay: Cytotoxicity against human Raji cells assessed as cell viability at 500 molar ratio after 48 hrs; format: cell-based; conditions: read-out: Activity

# compound, viability at 48 h, 500 molar ratio
records = [
    ("CCC1=C(C)C(=O)O[C@@H]([C@](C)(O)[C@H]2CC[C@@]3(O)C4=CC(=O)[C@@H]5C[C@@H](O)[C@@H](O)C[C@]5(C)[C@H]4CC[C@]23C)C1", "> 80%"),
    ("C=C(CO)C(CC)C[C@@H](O)[C@@](C)(O)[C@H]1CC[C@@]2(O)C3=CC(=O)[C@@H]4C[C@@H](O)[C@@H](O)C[C@]4(C)[C@H]3CC[C@]12C (stereo partly drawn)", "> 80%"),
    ("C=C(C)C(C[C@@H](O)[C@@](C)(O)[C@H]1CC[C@@]2(O)C3=CC(=O)[C@@H]4C[C@@H](O)[C@@H](O)C[C@]4(C)[C@H]3CC[C@]12C)C(C)O (stereo partly drawn) [DECUMBESTERONE]", "> 80%"),
]

###

Measured viability at 48 h, 1000 molar ratio, listed per entry.
assay: Cytotoxicity against human Raji cells assessed as cell viability at 1000 molar ratio after 48 hrs; assay type: cell-based; conditions: read-out: Activity

# molecule, viability at 48 h, 1000 molar ratio
records = [
    ("O=c1cc(-c2ccc(O)cc2)oc2cc(O)cc(O)c12", "50%"),
    ("C=C(CO)C(CC)C[C@@H](O)[C@@](C)(O)[C@H]1CC[C@@]2(O)C3=CC(=O)[C@@H]4C[C@@H](O)[C@@H](O)C[C@]4(C)[C@H]3CC[C@]12C (stereo partly drawn)", "70%"),
    ("CC(C)(O)CC[C@@H](O)[C@](C)(O)[C@H]1CC[C@@]2(O)C3=CC(=O)[C@]4(O)C[C@@H](O)[C@@H](O)C[C@]4(C)[C@H]3CC[C@]12C", "70%"),
]

###

test system: Raji; test: Inhibition of 12-O-tetradecanoylphorbol-13-acetate induced EBV-early antigen activation in human Raji cells at 100 molar ratio relative to control; assay type: cell-based; details: human gammaherpesvirus 4
Dear colleague, classification is by EBV-EA induction remaining (% of TPA control), with ranges listed here: low value: < 70%; medium value: ≥ 70% and < 80%; high value: ≥ 80%

# compound, label
records = [
    ("CC(=O)O[C@@]1(C)C[C@@H](O)[C@]2(O)C=CO[C@@H](O[C@@H]3O[C@H](CO)[C@@H](O)[C@H](O)[C@H]3O)[C@@H]21", "low value"),
    ("C[C@@H]1C(=O)O[C@H](C)[C@H]1C[C@@H](O)[C@](C)(O)[C@H]1CC[C@@]2(O)C3=CC(=O)[C@@H]4C[C@@H](O)[C@@H](O)C[C@]4(C)[C@H]3CC[C@]12C [CYASTERONE]", "medium value"),
    ("C/C=C(/C)C(=O)O[C@@H]1CC[C@]2(CO2)[C@]2(COC(C)=O)[C@@H](OC(C)=O)C[C@@H](C)[C@](C)(C[C@H](O)C3=CC(=O)OC3)[C@@H]12", "medium value"),
    ("CC1(C)C[C@H](O)C[C@@]2(C)OC(=O)C=C12 [LOLIOLIDE]", "low value"),
    ("C=C(C)C(C[C@@H](O)[C@@](C)(O)[C@H]1CC[C@@]2(O)C3=CC(=O)[C@@H]4C[C@@H](O)[C@@H](O)C[C@]4(C)[C@H]3CC[C@]12C)C(C)O (stereo not given in full) [DECUMBESTERONE]", "low value"),
    ("O=c1cc(-c2ccc(O)cc2)oc2cc(O)cc(O)c12 [APIGENIN]", "high value"),
    ("C[C@@H]1C(=O)O[C@H](C)[C@H]1CC(=O)[C@](C)(O)[C@H]1CC[C@@]2(O)C3=CC(=O)[C@@H]4C[C@@H](O)[C@@H](O)C[C@]4(C)[C@H]3CC[C@]12C", "high value"),
]

###

Measured EBV-EA induction remaining (% of TPA control), listed per entry.
test system: Raji; test: Inhibition of 12-O-tetradecanoylphorbol-13-acetate induced EBV-early antigen activation in human Raji cells at 100 molar ratio relative to control; type: cell-based; settings: human gammaherpesvirus 4
propertyLabel: EBV-EA induction remaining (% of TPA control) (%)

# molecule, measuredTarget, resultValue
measured = [
    ("COc1cc(C(=O)O)ccc1O [VANILLIC ACID]", "Raji", 73.9),
    ("CC(C)(O)CC[C@@H](O)[C@@](C)(O)[C@H]1CC[C@@]2(O)C3=CC(=O)[C@]4(O)C[C@@H](O)[C@@H](O)C[C@]4(C)[C@H]3CC[C@]12C", "Raji", 65.9),
    ("CCC1=C(C)C(=O)O[C@@H]([C@](C)(O)[C@H]2CC[C@@]3(O)C4=CC(=O)[C@@H]5C[C@@H](O)[C@@H](O)C[C@]5(C)[C@H]4CC[C@]23C)C1", "Raji", 81),
    ("CC(C)(O)CC[C@@H](O)[C@@](C)(O)[C@H]1CC[C@@]2(O)C3=CC(=O)[C@@H]4C[C@@H](O)[C@@H](O)C[C@]4(C)[C@H]3CC[C@]12C", "Raji", 90.1),
    ("C/C=C(/C)C(=O)O[C@@H]1CC[C@]2(CO2)[C@]2(COC(C)=O)[C@@H](OC(C)=O)C[C@@H](C)[C@](C)(C[C@H](OC(C)=O)C3=CC(=O)OC3)[C@@H]12", "Raji", 73.5),
    ("C=C(CO)C(CC)C[C@@H](O)[C@@](C)(O)[C@H]1CC[C@@]2(O)C3=CC(=O)[C@@H]4C[C@@H](O)[C@@H](O)C[C@]4(C)[C@H]3CC[C@]12C (stereo partly specified)", "Raji", 72.6),
]

###

tested on: Raji; assay: Inhibition of 12-O-tetradecanoylphorbol-13-acetate induced EBV-early antigen activation in human Raji cells at 100 molar ratio relative to control; format: cell-based; settings: human gammaherpesvirus 4
Measured EBV-EA induction remaining (% of TPA control), listed per entry.
propertyLabel: EBV-EA induction remaining (% of TPA control) (%)

# molecule, measuredTarget, resultValue
records = [
    ("C/C=C(/C)C(=O)O[C@@H](C[C@@]1(C)[C@H](C)C[C@H](OC(C)=O)[C@]2(COC(C)=O)[C@@H]1[C@H](OC(=O)/C(C)=C\\C)CC[C@]21CO1)C1=CC(=O)OC1", "Raji", 71.5),
    ("C[C@@H]1C(=O)O[C@H](C)[C@H]1C[C@@H](O)[C@](C)(O)[C@H]1CC[C@@]2(O)C3=CC(=O)[C@]4(O)C[C@@H](O)[C@@H](O)C[C@]4(C)[C@H]3CC[C@]12C", "Raji", 80.2),
    ("CC(=O)OC[C@@]12[C@@H](OC(C)=O)C[C@@H](C)[C@](C)(C[C@H](OC(C)=O)C3=CC(=O)OC3)[C@H]1[C@H](OC(C)=O)CC[C@]21CO1 [AJUGAPANTIN A]", "Raji", 79.2),
]
